system: Es-2; assay: Primary qHTS to identify gynecologic anti-cancer compounds using libraries of approved drugs and bioactive compounds (AID 1345084); conditions: Gynecologic cancer cell panel viability, ATPlite luminescence, 48 h; series mostly up to 57.5 µM; further: nearly all actives have a fitted effect of over 55% in size
Inconclusive results are not listed. Activity calls are given as the source filed them. The call rests on the fitted dose curve; in most records, active means well fitted cell-killing curve with a large enough effect; inconclusive means small, poorly fitted or top-dose-only effect, or effect the other way; inactive means flat fitted curve, though single readings scatter.
Respond using exactly one of the listed classes: t (active), f (inactive)

// known answers, use as guide
Record Smiles | Class Assignment
Nc1c(Cl)c(Cl)c(Cl)c(Cl)c1Cl | f
C/C=C(/C)C(=O)O[C@H]1C(C)=C2[C@H]([C@@H]1OC(=O)CCCCCCC)[C@@](C)(OC(C)=O)C[C@H](OC(=O)CCC)[C@@]1(O)[C@H]2OC(=O)[C@@]1(C)O | t
CC(C)[C@]12O[C@H]1[C@@H]1O[C@]13[C@]1(O[C@H]1C[C@H]1C4=C(CC[C@@]13C)C(=O)OC4)[C@@H]2O | t

Record request — test call for CCc1c(C(=O)C(N)=O)c2c(OCC(=O)O)cccc2n1Cc1ccccc1 f
